- System: NCI-H460 lung
- TEST: NCI-60 one-dose screen, 48 h (100 = growth as untreated, 0 = no growth, -100 = all killed)
- CONDITIONS_USED: 10 µM unless noted
About 83,000 compounds went through this panel and 20% of them were active in at least one assay; those are over-represented in the sample as a whole.
# note: exactly 90% is not below, so it is NO; use YES for growth strictly under it

Please review the following examples before continuing.
INSERT INTO measurements (compound, class_label) VALUES
  ('ClC1C2CC(c3ccccc32)C1Cl (stereo unspecified)', 'NO'),
  ('COc1cccc(-c2nnc(N)o2)c1', 'NO'),
  ('C=CCOc1ccc2c(c1)CC[C@@H]1[C@@H]2CC[C@@]2(C)[C@H]1CC[C@]2(C)O', 'YES'),
  ('NC(=O)SCC(=O)Nc1ccccc1-c1ccccc1', 'NO');

Please look at the following compound next.
Lookup: Strictly below 90%: is that where growth of CN(C)c1ccc2[nH]c3c(C(N)=O)cc(=O)c(=O)c=3oc2c1 sits?
Found: YES
